Test system: Streptococcus bovis 80
Assay Comment: MIC, broth-dilution microtiter test, Streptococcus bovis 80
Format: cell-based
Assay Conditions: Streptococcus equinus; Streptococcus bovis 80; broth-dilution microtiter; read-out: MIC
Property Label: MIC (µg/mL)

1) CCC1CC(C)C(=O)C=CC(C)=CC(COC2OC(C)C(O)C(O)C2OC)C(CC)OC(=O)CC(O)C(C)C1OC1OC(C)C(O)C(N(C)C)C1O (centres unmarked) [Compound 60, 20-DH-DO-Lactenocin]: 6.25
2) CCC1OC(=O)CC(O)C(C)C(OC2OC(C)C(OC3CC(C)(O)C(O)C(C)O3)C(N(C)C)C2O)C(CCN=[N+]=[N-])CC(C)C(=O)C=CC(C)=CC1COC1OC(C)C(O)C(OC)C1OC (centres unmarked) [Compound 2, 20-DH-DO-20-Azidotylosin]: 50
3) CCC1OC(=O)CC(O)C(C)C(OC2OC(C)C(O)C(N(C)C)C2O)C(CCOC(=O)COc2ccccc2)CC(C)C(=O)C=CC(C)=CC1COC1OC(C)C(O)C(OC)C1OC (centres unmarked) [Compound 26, 20-DH-20-O-(Phenoxyacetyl)desmycosin]: 1.56
4) CCC1OC(=O)CC(O)C(C)C(OC2OC(C)C(O)C(N(C)C)C2O)C(CC2OCCO2)CC(C)C(=O)C=CC(C)=CC1COC1OC(C)C(O)C(OC)C1OC (centres unmarked) [Compound 74]: 6.25
5) CCC1OC(=O)CC(O)C(C)C(OC2OC(C)C(O)C(N(C)C)C2O)C(CCSc2ccccc2)CC(C)C(=O)C=CC(C)=CC1COC1OC(C)C(O)C(OC)C1OC (centres unmarked) [Compound 23, 20-DH-DO-20-(phenylthio)desmycosin]: 6.25

###

Tested on: Staphylococcus aureus X1.1
Assay Comment: MIC, standard agar-dilution assay, Staphylococcus aureus X1.1
Type: cell-based
Assay Conditions: Staphylococcus aureus, X1.1
Property Label: MIC

1) CCC1OC(=O)CC(O)C(C)C(OC2OC(C)C(O)C(N(C)C)C2O)C(CC2OCCO2)CC(C)C(=O)C=CC(C)=CC1COC1OC(C)C(O)C(OC)C1OC (centres unmarked): 0.5 µg/mL
2) CCC1OC(=O)CC(O)C(C)C(OC2OC(C)C(O)C(N(C)C)C2O)C(CCO[N+](=O)[O-])CC(C)C(=O)C=CC(C)=CC1COC1OC(C)C(O)C(OC)C1OC (centres unmarked): 0.25 µg/mL
3) CCC1OC(=O)CC(O)C(C)C(OC2OC(C)C(O)C(N(C)C)C2O)C(CCOC(C(F)(F)F)C(F)(F)F)CC(C)C(=O)C=CC(C)=CC1COC1OC(C)C(O)C(OC)C1OC (centres unmarked): 0.5 µg/mL
4) CCC1OC(=O)CC(O)C(C)C(OC2OC(C)C(OC3CC(C)(O)C(O)C(C)O3)C(N(C)C)C2O)C(CCSc2nnnn2C)CC(C)C(=O)C=CC(C)=CC1COC1OC(C)C(O)C(OC)C1OC (centres unmarked): 0.5 µg/mL
5) CCC1CC(C)C(=O)C=CC(C)=CC(COC2OC(C)C(O)C(O)C2OC)C(CC)OC(=O)CC(O)C(C)C1OC1OC(C)C(O)C(N(C)C)C1O (centres unmarked): 0.25 µg/mL

###

Test system: Staphylococcus aureus X400
Assay Comment: MIC, standard agar-dilution assay, Staphylococcus aureus X400
Type: cell-based
Assay Conditions: Staphylococcus aureus, X400
compounds and their reported MIC
Property Label: MIC (µg/mL)

1. CCC1OC(=O)CC(O)C(C)C(OC2OC(C)C(O)C(N(C)C)C2O)C(CCOc2ccc(C=O)cc2)CC(C)C(=O)C=CC(C)=CC1COC1OC(C)C(O)C(OC)C1OC (stereo not shown) [Compound 36, 20-DH-20-O-(p-formylphenyl)desmycosin]: 0.25
2. CCC1OC(=O)CC(O)C(C)C(OC2OC(C)C(OC3CC(C)(O)C(O)C(C)O3)C(N(C)C)C2O)C(C)CC(C)C(=O)C=CC(C)=CC1COC1OC(C)C(O)C(O)C1OC (stereo not shown) [Compound 54, 20-Deformylmacrocin]: 2
3. CCC1OC(=O)CC(O)C(C)C(OC2OC(C)C(O)C(N(C)C)C2O)C(CC2Nc3ccccc3S2)CC(C)C(=O)C=CC(C)=CC1COC1OC(C)C(O)C(OC)C1OC (stereo not shown) [Compound 75]: 0.5
4. CCC1OC(=O)CC(O)C(C)C(OC2OC(C)C(OC3CC(C)(O)C(O)C(C)O3)C(N(C)C)C2O)C(CCSc2nnnn2C)CC(C)C(=O)C=CC(C)=CC1COC1OC(C)C(O)C(OC)C1OC (stereo not shown) [Compound 5]: 2
5. CCC1OC(=O)CC(O)C(C)C(OC2OC(C)C(OC3CC(C)(O)C(O)C(C)O3)C(N(C)C)C2O)C(CCOc2ccc(C=O)cc2)CC(C)C(=O)C=CC(C)=CC1COC1OC(C)C(O)C(OC)C1OC (stereo not shown) [Compound 17, 20-DH-20-O-(p-Formylphenyl)tylosin]: 2
6. CCC1OC(=O)CC(O)C(C)C(OC2OC(C)C(O)C(N(C)C)C2O)C(CCSc2nnnn2C)CC(C)C(=O)C=CC(C)=CC1COC1OC(C)C(O)C(OC)C1OC (stereo not shown) [Compound 24]: 1
7. CCC1OC(=O)CC(O)C(C)C(OC2OC(C)C(O)C(N(C)C)C2O)C(CCI)CC(C)C(=O)C=CC(C)=CC1COC1OC(C)C(O)C(O)C1OC (stereo not shown) [Compound 57, 20-DH-DO-20-Iodolactenocin]: 1
8. CCC1OC(=O)CC(O)C(C)C(OC2OC(C)C(O)C(N(C)C)C2O)C(CCOC(C(F)(F)F)C(F)(F)F)CC(C)C(=O)C=CC(C)=CC1COC1OC(C)C(O)C(OC)C1OC (stereo not shown) [Compound 32]: 0.5
9. CCOC(=O)c1ccc(OCCC2CC(C)C(=O)C=CC(C)=CC(COC3OC(C)C(O)C(OC)C3OC)C(CC)OC(=O)CC(O)C(C)C2OC2OC(C)C(O)C(N(C)C)C2O)cc1 (stereo not shown) [Compound 38]: 0.5
10. CCC1OC(=O)CC(O)C(C)C(OC2OC(C)C(O)C(N(C)C)C2O)C(CC2OCCO2)CC(C)C(=O)C=CC(C)=CC1COC1OC(C)C(O)C(OC)C1OC (stereo not shown) [Compound 74]: 2
